Attribution: patent US20230364032A1

Experiment: 2-HOBA and 4-HOBA levels in plasma and tissues of Ldlr−/− mice (LC/MS)
Type: in vivo
Settings: Ldlr−/− on C57BL/6 background, mouse, plasma, oral, 1 g/L in drinking water; male Ldlr−/− mice after 16 weeks of treatment with 1 g/L of water
Procedure: FIG. 11A-11C show the concentration of 2-HOBA or 4-HOBA was measured in plasma and tissues from Ldlr^−/− mice. […] Levels of HOBA were measured in the aorta and heart of male Ldlr^−/− mice consuming a chow diet 30 min after oral gavage of 2-HOBA or 4-HOBA (5 mg each mouse). […] The levels of 2-HOBA or 4-HOBA were measured in the plasma and tissues using LC/MS as described in the Methods. […]
PARAMETER_MEASURED: concentration at 16 weeks (ng/mL)
Provide the reading as a plain figure in ng/mL.

1) NCc1ccccc1O [2-HOBA, 2-hydroxybenzylamine]	469

q: In one line, give reported concentration at 16 weeks of the entry NCc1ccc(O)cc1 [4-HOBA, 4-hydroxybenzylamine, reference compound] .
a: 25
